Hi there, I'd appreciate the recorded Population Hoechst High Intensity Objects (%) for every entry that follows.
Test system: Fibroblast
Assay: Multiplex assay against human fibroblast
Assay type: toxicity, cell-based
Settings: 24 h, 10 µM, compound concentration 10 uM, number of replicates 2
Answers are plain numbers, in %.

>>> result_number("CN(C)CCCN1c2ccccc2Sc2ccc(Cl)cc21.Cl [CHLORPROMAZINE HYDROCHLORIDE]")
1
>>> result_number("CCC(=O)O[C@@H](OP(=O)(CCCCc1ccccc1)CC(=O)N1C[C@H](C2CCCCC2)C[C@H]1C(=O)[O-])C(C)C.[Na+] (stereo partly drawn)")
0
>>> result_number("N[C@@H]1c2cccnc2[C@H](OC(=O)N2CCC(n3c(=O)[nH]c4ncccc43)CC2)CC[C@H]1c1cccc(F)c1F [RIMEGEPANT]")
0
>>> result_number("CN1CCN(C(=O)Cc2ccc(N/C(=C3\\C(=O)Nc4cc(Cl)ccc43)c3ccccc3)cc2)CC1")
0

Look up Population Hoechst High Intensity Objects (%) for the entries below, preserving their order.
1. COC(=O)c1ccc2c(c1)NC(=O)/C2=C(\Nc1ccc(-c2nccn2C)cc1)c1ccccc1
2. CC(C)(C)c1cnc(CSc2cnc(NC(=O)C3CCN(CC(=O)NCCOCCOCCOCCNc4cccc5c4C(=O)N(C4CCC(=O)NC4=O)C5=O)CC3)s2)o1 (stereo not drawn)
3. Br.Oc1cc2c(cc1O)C(c1ccccc1)CNCC2 (stereo not drawn)
4. COc1c(OCCCN2CCOCC2)ccc2c1N=C(NC(=O)c1cnc(N)nc1)N1CCN=C21 [COPANLISIB]

[0, 0, 0, 0]
